# experimentalSystem: hNaV1.7 (Homo sapiens)
# methodSummary: FDSS Membrane Potential In-Vitro Assay
# conditionContext: stimulation with veratridine and scorpion venom, read-out: NaV1.7 IC50
pIC50: −log10 of the molar value.
Attribute: pIC50

Solved entries (count: 3):
O=C(O)CCNCCCc1cc(Cl)ccc1Oc1cc(F)c(S(=O)(=O)Nc2cscn2)cc1F [Compound 22] = 4.70 to 6.00
O=C(O)CNCCCc1ccccc1Oc1cc(F)c(S(=O)(=O)Nc2ncns2)cc1Cl [Compound 20] = 6.00 to 6.89
O=C(O)CNCCCc1cc(Cl)ccc1Oc1cc(F)c(S(=O)(=O)Nc2cscn2)cc1F [Compound 21] = 4.70 to 6.00

Please look at the following compound next.
Which pIC50 reading was recorded for the compound O=S(=O)(Nc1nccs1)c1cc(Cl)c(Oc2ccc(Cl)cc2CCCNc2cn[nH]c2)cc1F [Compound 42] ?
4.70 to 6.00

###

# experimentalSystem: CYP3A4 (Homo sapiens, UniProt P08684)
# Construct: purchased Invitrogen
# Sequence (P08684 2-503 limits assumed): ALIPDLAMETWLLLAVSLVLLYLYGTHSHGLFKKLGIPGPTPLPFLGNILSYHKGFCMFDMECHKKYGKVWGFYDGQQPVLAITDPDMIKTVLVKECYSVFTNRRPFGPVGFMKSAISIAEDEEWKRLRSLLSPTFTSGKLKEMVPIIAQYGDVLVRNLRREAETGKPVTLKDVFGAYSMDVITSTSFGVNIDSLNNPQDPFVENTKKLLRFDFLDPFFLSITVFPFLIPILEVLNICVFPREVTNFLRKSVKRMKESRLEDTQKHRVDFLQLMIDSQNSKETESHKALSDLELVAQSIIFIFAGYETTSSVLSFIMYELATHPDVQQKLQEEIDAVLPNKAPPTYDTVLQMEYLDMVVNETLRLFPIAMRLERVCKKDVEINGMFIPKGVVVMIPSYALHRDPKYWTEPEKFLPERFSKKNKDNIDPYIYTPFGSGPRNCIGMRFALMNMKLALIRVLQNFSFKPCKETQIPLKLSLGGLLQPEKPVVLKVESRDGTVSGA
# methodSummary: In-Vitro Cytochrome P450 (CYP450) Inhibition Assay (Vivid CYP450)
# Type: in vitro ADME
# conditionContext: CYP3A4 enzyme complex (Vivid CYP450, Invitrogen), 6 μM test concentration
# Text: We evaluated interaction of drug candidates with cytochrome P450 enzymes which are a major determinant of drug clearance via oxidative metabolism using a high throughput compatible, fluorescence based CYP450 screening assay (Vivid® CYP450, Invitrogen) according to manufacturer's directions. […]
experimentalReadout: inhibition at 1 hour, 6 µM

Solved entries (count: 5):
O=C(O)C1CCN(CCCc2cc(Cl)ccc2Oc2cc(F)c(S(=O)(=O)Nc3ncns3)cc2Cl)CC1 = 50 to 100%
C[C@H](NC(=O)c1cc(-c2cc(Cl)ccc2Oc2cc(F)c(S(=O)(=O)Nc3ncns3)cc2Cl)ccn1)C(=O)O = 25 to 50%
O=C(O)CCCNC(=O)c1cc(-c2cc(Cl)ccc2Oc2cc(F)c(S(=O)(=O)Nc3ncns3)cc2Cl)ccn1 = 50 to 100%
N#Cc1cc(S(=O)(=O)Nc2ncns2)ccc1Oc1ccc(Cl)cc1-c1ccnc(C(=O)NCCC(=O)O)c1 = 0 to 25%
O=C(O)CNCCCc1ccccc1Oc1cc(F)c(S(=O)(=O)Nc2ncns2)cc1Cl = 50 to 100%

Please look at the following molecule next.
For the record O=C(O)CNCCCc1cc(Cl)ccc1Oc1cc(F)c(S(=O)(=O)Nc2nccs2)cc1Cl , what value of inhibition at 1 hour, 6 µM is listed for CYP3A4 (Homo sapiens, UniProt P08684)?
0 to 25%

###

# experimentalSystem: NaV1.7 (Homo sapiens, UniProt Q15858)
# Sequence (Q15858 whole entry): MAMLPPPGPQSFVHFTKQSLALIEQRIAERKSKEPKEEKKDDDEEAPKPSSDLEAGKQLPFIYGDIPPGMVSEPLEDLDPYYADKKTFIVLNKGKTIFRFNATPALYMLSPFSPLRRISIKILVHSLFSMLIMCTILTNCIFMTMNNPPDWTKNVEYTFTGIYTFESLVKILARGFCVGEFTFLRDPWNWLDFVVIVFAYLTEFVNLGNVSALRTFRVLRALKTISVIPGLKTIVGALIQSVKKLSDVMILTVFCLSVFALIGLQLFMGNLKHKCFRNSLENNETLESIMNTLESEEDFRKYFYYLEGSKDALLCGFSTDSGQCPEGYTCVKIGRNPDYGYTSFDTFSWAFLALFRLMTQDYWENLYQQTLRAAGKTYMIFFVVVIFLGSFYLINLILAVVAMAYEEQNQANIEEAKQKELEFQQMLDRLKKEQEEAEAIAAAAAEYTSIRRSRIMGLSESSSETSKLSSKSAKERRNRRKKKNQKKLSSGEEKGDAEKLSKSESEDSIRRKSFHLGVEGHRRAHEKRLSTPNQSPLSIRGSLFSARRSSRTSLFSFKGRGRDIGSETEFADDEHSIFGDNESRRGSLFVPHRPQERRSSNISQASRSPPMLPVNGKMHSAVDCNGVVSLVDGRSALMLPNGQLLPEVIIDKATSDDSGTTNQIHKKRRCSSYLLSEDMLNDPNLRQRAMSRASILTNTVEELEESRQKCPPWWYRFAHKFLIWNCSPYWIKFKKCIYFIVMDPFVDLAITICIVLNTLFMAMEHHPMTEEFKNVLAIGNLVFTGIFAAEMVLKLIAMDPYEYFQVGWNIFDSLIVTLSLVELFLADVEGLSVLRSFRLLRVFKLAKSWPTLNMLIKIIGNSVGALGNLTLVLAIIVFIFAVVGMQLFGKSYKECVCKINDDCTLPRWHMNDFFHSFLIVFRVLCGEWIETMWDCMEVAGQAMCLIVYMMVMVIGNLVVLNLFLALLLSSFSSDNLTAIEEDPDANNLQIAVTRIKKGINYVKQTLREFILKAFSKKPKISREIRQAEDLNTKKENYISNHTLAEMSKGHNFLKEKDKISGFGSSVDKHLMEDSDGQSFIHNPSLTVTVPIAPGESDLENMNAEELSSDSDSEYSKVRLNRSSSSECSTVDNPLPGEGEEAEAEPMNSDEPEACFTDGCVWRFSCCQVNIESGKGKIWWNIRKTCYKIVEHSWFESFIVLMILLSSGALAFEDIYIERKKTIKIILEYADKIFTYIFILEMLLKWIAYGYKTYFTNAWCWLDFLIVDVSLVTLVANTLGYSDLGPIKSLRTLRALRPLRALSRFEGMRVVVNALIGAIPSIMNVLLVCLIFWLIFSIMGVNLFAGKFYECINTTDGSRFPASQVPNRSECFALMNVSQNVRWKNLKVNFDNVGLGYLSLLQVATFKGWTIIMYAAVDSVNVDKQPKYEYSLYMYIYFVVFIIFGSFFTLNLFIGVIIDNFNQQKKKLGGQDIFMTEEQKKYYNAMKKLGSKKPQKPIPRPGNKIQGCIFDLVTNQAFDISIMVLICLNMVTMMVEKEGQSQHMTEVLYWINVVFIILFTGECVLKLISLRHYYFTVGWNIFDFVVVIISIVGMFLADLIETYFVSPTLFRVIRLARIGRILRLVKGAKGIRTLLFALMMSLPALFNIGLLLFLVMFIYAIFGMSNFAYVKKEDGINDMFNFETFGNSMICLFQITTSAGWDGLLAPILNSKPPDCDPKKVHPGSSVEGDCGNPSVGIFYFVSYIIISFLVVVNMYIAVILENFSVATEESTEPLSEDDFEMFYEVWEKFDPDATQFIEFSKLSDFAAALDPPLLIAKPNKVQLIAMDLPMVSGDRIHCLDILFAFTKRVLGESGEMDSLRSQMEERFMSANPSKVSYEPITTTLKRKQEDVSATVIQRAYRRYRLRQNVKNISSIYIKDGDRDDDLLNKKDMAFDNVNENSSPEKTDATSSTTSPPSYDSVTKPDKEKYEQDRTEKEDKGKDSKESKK
# Sequence (Q07699 19-218 partner): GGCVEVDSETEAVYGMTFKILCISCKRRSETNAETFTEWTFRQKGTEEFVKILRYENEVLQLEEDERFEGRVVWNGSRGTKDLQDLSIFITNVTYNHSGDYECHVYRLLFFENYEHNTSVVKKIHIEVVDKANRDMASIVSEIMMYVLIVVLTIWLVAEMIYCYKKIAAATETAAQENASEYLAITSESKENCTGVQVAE
# Sequence (O60939 30-215 partner): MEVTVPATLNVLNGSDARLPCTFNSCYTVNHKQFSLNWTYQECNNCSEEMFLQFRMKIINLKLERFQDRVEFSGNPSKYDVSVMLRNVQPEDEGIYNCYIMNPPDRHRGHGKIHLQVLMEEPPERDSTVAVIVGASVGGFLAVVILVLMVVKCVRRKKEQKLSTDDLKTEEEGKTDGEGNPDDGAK
# methodSummary: Patchliner Electrophysiological In-Vitro Assay (NaV1.7)
# conditionContext: Patchliner patch clamp, HEK293, holding at V1/2
pIC50: −log10 of the molar value.
experimentalReadout: pIC50

Solved entries (count: 10):
O=C(O)CNCCCc1cc(Cl)ccc1Oc1cc(F)c(S(=O)(=O)Nc2cscn2)cc1Cl = > 7.00
NC(=O)CNCCCc1cc(Cl)ccc1Oc1cc(F)c(S(=O)(=O)Nc2cscn2)cc1F = > 7.00
O=C(O)C1CCN(CCCc2cc(Cl)ccc2Oc2cc(F)c(S(=O)(=O)Nc3cscn3)cc2Cl)CC1 = 6.00 to 7.00
C[C@H](NC(=O)c1cc(-c2cc(Cl)ccc2Oc2cc(F)c(S(=O)(=O)Nc3ncns3)cc2Cl)ccn1)C(=O)O = > 7.00
C[C@@H](NC(=O)c1cc(-c2cc(Cl)ccc2Oc2cc(F)c(S(=O)(=O)Nc3ncns3)cc2Cl)ccn1)C(=O)O = > 7.00
C#CCN(CCCc1cc(Cl)ccc1Oc1cc(F)c(S(=O)(=O)Nc2nccs2)cc1Cl)CCC(=O)O = > 7.00
O=C(O)CC1CCN(CCCc2cc(Cl)ccc2Oc2cc(F)c(S(=O)(=O)Nc3ncns3)cc2Cl)CC1 = > 7.00
C#CCN(CCCc1cc(Cl)ccc1Oc1cc(F)c(S(=O)(=O)Nc2cscn2)cc1Cl)CC(=O)O = > 7.00
COC(=O)CN(C)CCCc1cc(Cl)ccc1Oc1cc(F)c(S(=O)(=O)Nc2cscn2)cc1Cl = 6.30 to 7.00
O=C(O)CNCCCc1ccccc1Oc1cc(F)c(S(=O)(=O)Nc2ncns2)cc1Cl = > 7.00

Which pIC50 reading was recorded for the molecule O=C(O)CNCCCc1cc(Cl)ccc1Oc1cc(F)c(S(=O)(=O)Nc2nccs2)cc1Cl ?
> 7.00

Which pIC50 reading was recorded for the molecule O=C(O)CCNCCCc1cc(Cl)ccc1Oc1cc(F)c(S(=O)(=O)Nc2ncns2)cc1Cl ?
> 7.00

Which pIC50 reading was recorded for the molecule C#CCN(CCCc1cc(Cl)ccc1Oc1cc(F)c(S(=O)(=O)Nc2nccs2)cc1F)CC(=O)O ?
> 7.00

Which pIC50 reading was recorded for the molecule CN(CCCc1cc(Cl)ccc1Oc1cc(F)c(S(=O)(=O)Nc2cscn2)cc1Cl)CC(=O)O ?
5.00 to 6.00

Which pIC50 reading was recorded for the molecule O=C(O)CCNCCCc1cc(Cl)ccc1Oc1cc(F)c(S(=O)(=O)Nc2cscn2)cc1Cl ?
> 7.00

###

# experimentalSystem: NaV1.7 (Homo sapiens, UniProt Q15858)
# methodSummary: Patchliner Electrophysiological In-Vitro Assay (NaV1.7)
# conditionContext: Patchliner patch clamp, HEK293, holding at V1/2
# Method: In vitro assays were performed in recombinant cell line that stably express a heterotrimeric protein of interest from an introduced nucleic acid encoding the alpha subunit (hNav1.7, SCN9A), the beta subunit (SCNB1) and the beta subunit (SCNB2). The cell line was engineered using Human Embryonic Kidney 293 cells as host background. […]
pIC50: −log10 of the molar value.
experimentalReadout: pIC50

Solved entries (count: 5):
CS(=O)(=O)CCNCCCc1cc(Cl)ccc1Oc1cc(F)c(S(=O)(=O)Nc2cscn2)cc1Cl = > 7.00
C=CCN(CCCc1cc(Cl)ccc1Oc1cc(F)c(S(=O)(=O)Nc2nccs2)cc1Cl)CC(=O)O = > 7.00
O=C(O)C1CCCN(CCCc2cc(Cl)ccc2Oc2cc(F)c(S(=O)(=O)Nc3cscn3)cc2Cl)C1 (stereo not shown) = 6.00 to 7.00
O=C(O)CCNCCCc1cc(Cl)ccc1Oc1cc(F)c(S(=O)(=O)Nc2nccs2)cc1Cl = > 7.00
O=C(O)CNCCCc1cc(Cl)ccc1Oc1cc(F)c(S(=O)(=O)Nc2cscn2)cc1F = 6.00 to 7.00

Which pIC50 reading was recorded for the compound O=C(O)CCNCCCc1cc(Cl)ccc1Oc1cc(F)c(S(=O)(=O)Nc2cscn2)cc1F ?
6.00 to 7.00

Which pIC50 reading was recorded for the compound O=C(O)CNC(=O)c1cc(-c2cc(Cl)ccc2Oc2cc(F)c(S(=O)(=O)Nc3ncns3)cc2Cl)ccn1 ?
> 7.00

###

# experimentalSystem: UniProtKB Q15858
# methodSummary: FDSS Membrane Potential In-Vitro Assay
# conditionContext: stimulation with veratridine and scorpion venom, read-out: NaV1.7 IC50
pIC50: −log10 of the molar value.
experimentalReadout: pIC50

CNC(=O)CNCCCc1cc(Cl)ccc1Oc1cc(F)c(S(=O)(=O)Nc2cscn2)cc1Cl = 6.30 to 7.00
O=C(O)C1CCN(CCCc2cc(Cl)ccc2Oc2cc(F)c(S(=O)(=O)Nc3ncns3)cc2Cl)CC1 = > 6.89
N#Cc1cc(S(=O)(=O)Nc2ncns2)ccc1Oc1ccc(Cl)cc1-c1ccnc(C(=O)NCCC(=O)O)c1 = 6.00 to 6.89
COC(=O)CN(C)CCCc1cc(Cl)ccc1Oc1cc(F)c(S(=O)(=O)Nc2cscn2)cc1Cl = 4.70 to 6.00
O=S(=O)(Nc1nccs1)c1cc(Cl)c(Oc2ccc(Cl)cc2-c2cnn3c2NCCC3)cc1F = 6.30 to 7.00
O=S(=O)(Nc1cscn1)c1cc(Cl)c(Oc2ccc(Cl)cc2CCCNc2cc[nH]n2)cc1F = 4.70 to 6.00
O=S(=O)(Nc1cscn1)c1cc(Cl)c(Oc2ccc(Cl)cc2CCCN2CCn3ccnc3C2)cc1F = 6.30 to 7.00
N#Cc1cc(S(=O)(=O)Nc2cscn2)ccc1Oc1ccc(Cl)cc1CCCNCCC(=O)O = 4.70 to 6.00
NC(=O)CCNCCCc1cc(Cl)ccc1Oc1cc(F)c(S(=O)(=O)Nc2cscn2)cc1Cl = > 6.89
C[C@H](NC(=O)c1cc(-c2cc(Cl)ccc2Oc2cc(F)c(S(=O)(=O)Nc3ncns3)cc2Cl)ccn1)C(=O)O = 6.00 to 6.89

Which pIC50 reading was recorded for the compound O=C(O)CC1CCN(CCCc2cc(Cl)ccc2Oc2cc(F)c(S(=O)(=O)Nc3ncns3)cc2Cl)CC1 ?
6.00 to 6.89

Which pIC50 reading was recorded for the compound O=S(=O)(Nc1cscn1)c1cc(Cl)c(Oc2ccc(Cl)cc2CCCN2CCc3[nH]ncc3C2)cc1F ?
6.00 to 6.30

Which pIC50 reading was recorded for the compound O=C(O)CCNC(=O)c1cc(-c2cc(Cl)ccc2Oc2cc(F)c(S(=O)(=O)Nc3ncns3)cc2F)ccn1 ?
6.00 to 6.89

Which pIC50 reading was recorded for the compound O=C(O)CCNCCCc1cc(Cl)ccc1Oc1cc(F)c(S(=O)(=O)Nc2ncns2)cc1Cl ?
> 6.89

Which pIC50 reading was recorded for the compound O=C(O)CNC(=O)c1cc(-c2cc(Cl)ccc2Oc2cc(F)c(S(=O)(=O)Nc3ncns3)cc2Cl)ccn1 ?
> 6.89

Which pIC50 reading was recorded for the compound C[C@@H](NC(=O)c1cc(-c2cc(Cl)ccc2Oc2cc(F)c(S(=O)(=O)Nc3ncns3)cc2Cl)ccn1)C(=O)O ?
6.00 to 6.89

Which pIC50 reading was recorded for the compound O=C(O)CNCCCc1cc(Cl)ccc1Oc1cc(F)c(S(=O)(=O)Nc2nccs2)cc1F ?
6.00 to 6.89

Which pIC50 reading was recorded for the compound O=S(=O)(Nc1cscn1)c1cc(Cl)c(Oc2ccccc2-c2cnn3c2NCCC3)cc1F ?
4.70 to 6.00

Which pIC50 reading was recorded for the compound O=C(O)C1CCCN(CCCc2cc(Cl)ccc2Oc2cc(F)c(S(=O)(=O)Nc3cscn3)cc2Cl)C1 (stereo not drawn) ?
4.70 to 6.00

Which pIC50 reading was recorded for the compound CCOC(=O)N(CCCc1cc(Cl)ccc1Oc1cc(F)c(S(=O)(=O)Nc2nccs2)cc1Cl)CC(=O)O ?
6.00 to 6.30

Which pIC50 reading was recorded for the compound O=C(O)CCNC(=O)c1cc(-c2cc(Cl)ccc2Oc2cc(F)c(S(=O)(=O)Nc3ncns3)cc2Cl)ccn1 ?
> 6.89

Which pIC50 reading was recorded for the compound O=C(O)CNC(=O)c1cccc(-c2cc(Cl)ccc2Oc2cc(F)c(S(=O)(=O)Nc3ncns3)cc2Cl)n1 ?
6.00 to 6.89

Which pIC50 reading was recorded for the compound CS(=O)(=O)CCNCCCc1cc(Cl)ccc1Oc1cc(F)c(S(=O)(=O)Nc2nccs2)cc1Cl ?
6.30 to 7.00

Which pIC50 reading was recorded for the compound CCOC(=O)CNCCCc1cc(Cl)ccc1Oc1cc(F)c(S(=O)(=O)Nc2nccs2)cc1Cl ?
6.30 to 7.00

Which pIC50 reading was recorded for the compound CN(CCCc1cc(Cl)ccc1Oc1cc(F)c(S(=O)(=O)Nc2cscn2)cc1Cl)CC(=O)O ?
4.70 to 6.00

Which pIC50 reading was recorded for the compound CC(C)CCOC(=O)CNCCCc1cc(Cl)ccc1Oc1cc(F)c(S(=O)(=O)Nc2nccs2)cc1Cl ?
6.00 to 6.30

Which pIC50 reading was recorded for the compound O=C(O)CCNCCCc1cc(Cl)ccc1Oc1cc(F)c(S(=O)(=O)Nc2cscn2)cc1Cl ?
6.00 to 6.89

Which pIC50 reading was recorded for the compound O=C(O)C1CCN(CCCc2cc(Cl)ccc2Oc2cc(F)c(S(=O)(=O)Nc3cscn3)cc2Cl)CC1 ?
4.70 to 6.00

Which pIC50 reading was recorded for the compound NC(CCNCCCc1cc(Cl)ccc1Oc1cc(F)c(S(=O)(=O)Nc2cscn2)cc1Cl)C(=O)O (stereo not drawn) ?
4.70 to 6.00

Which pIC50 reading was recorded for the compound O=C(O)CCNCCCc1cc(Cl)ccc1Oc1cc(F)c(S(=O)(=O)Nc2nccs2)cc1F ?
6.30 to 7.00

From: patent US20160221974A1
